- experimental system: Angiopoietin-1 receptor (Homo sapiens, UniProt Q02763)
- Sequence (Q02763 whole entry): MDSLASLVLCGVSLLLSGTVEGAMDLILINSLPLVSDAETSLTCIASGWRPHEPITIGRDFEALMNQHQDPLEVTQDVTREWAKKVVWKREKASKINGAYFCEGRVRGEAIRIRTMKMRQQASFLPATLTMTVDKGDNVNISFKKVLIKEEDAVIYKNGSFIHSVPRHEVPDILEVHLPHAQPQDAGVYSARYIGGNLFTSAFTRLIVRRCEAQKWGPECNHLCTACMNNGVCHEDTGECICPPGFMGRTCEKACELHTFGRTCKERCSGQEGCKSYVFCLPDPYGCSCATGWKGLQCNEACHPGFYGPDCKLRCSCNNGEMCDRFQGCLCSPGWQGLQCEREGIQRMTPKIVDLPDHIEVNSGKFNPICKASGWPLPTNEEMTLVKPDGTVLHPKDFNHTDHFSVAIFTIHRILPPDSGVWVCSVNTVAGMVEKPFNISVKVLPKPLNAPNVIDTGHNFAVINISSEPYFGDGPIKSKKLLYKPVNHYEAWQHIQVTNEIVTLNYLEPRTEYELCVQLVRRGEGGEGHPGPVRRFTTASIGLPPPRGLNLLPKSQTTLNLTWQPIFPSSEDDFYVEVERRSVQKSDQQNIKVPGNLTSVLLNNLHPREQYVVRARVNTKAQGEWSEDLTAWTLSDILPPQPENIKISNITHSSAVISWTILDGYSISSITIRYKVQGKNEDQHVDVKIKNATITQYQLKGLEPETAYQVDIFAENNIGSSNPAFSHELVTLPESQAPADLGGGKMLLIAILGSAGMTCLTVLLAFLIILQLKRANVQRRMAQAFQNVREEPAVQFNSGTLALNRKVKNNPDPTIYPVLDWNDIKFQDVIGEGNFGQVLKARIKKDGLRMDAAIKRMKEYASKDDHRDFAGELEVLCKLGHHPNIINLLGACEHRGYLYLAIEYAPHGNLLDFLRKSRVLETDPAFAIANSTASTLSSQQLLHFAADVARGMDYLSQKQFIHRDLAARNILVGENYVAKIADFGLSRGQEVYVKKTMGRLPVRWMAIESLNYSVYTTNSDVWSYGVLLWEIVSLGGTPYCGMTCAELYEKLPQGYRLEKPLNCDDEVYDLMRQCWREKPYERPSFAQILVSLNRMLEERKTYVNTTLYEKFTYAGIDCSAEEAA
- assay overview: Inhibition of TIE2 autophosphorylation in human HUVEC cells by Western blot analysis
recorded endpoint: EC50 (nM)

1. Cc1cc(C)c(-n2ccn3nc(-c4cccnc4)cc23)cc1NC(=O)c1cc(C#N)cc(S(F)(F)(F)(F)F)c1
1.3

----------
- experimental system: UniProt:Q02763
recorded endpoint: Kd

1) Cc1cc(C)c(-n2ccn3nc(-c4cccnc4)cc23)cc1NC(=O)c1cc(C#N)cc(S(F)(F)(F)(F)F)c1
1.6 nM

----------
- experimental system: Discoidin domain-containing receptor 2 (Homo sapiens, UniProt Q16832)
- Sequence (Q16832 whole entry): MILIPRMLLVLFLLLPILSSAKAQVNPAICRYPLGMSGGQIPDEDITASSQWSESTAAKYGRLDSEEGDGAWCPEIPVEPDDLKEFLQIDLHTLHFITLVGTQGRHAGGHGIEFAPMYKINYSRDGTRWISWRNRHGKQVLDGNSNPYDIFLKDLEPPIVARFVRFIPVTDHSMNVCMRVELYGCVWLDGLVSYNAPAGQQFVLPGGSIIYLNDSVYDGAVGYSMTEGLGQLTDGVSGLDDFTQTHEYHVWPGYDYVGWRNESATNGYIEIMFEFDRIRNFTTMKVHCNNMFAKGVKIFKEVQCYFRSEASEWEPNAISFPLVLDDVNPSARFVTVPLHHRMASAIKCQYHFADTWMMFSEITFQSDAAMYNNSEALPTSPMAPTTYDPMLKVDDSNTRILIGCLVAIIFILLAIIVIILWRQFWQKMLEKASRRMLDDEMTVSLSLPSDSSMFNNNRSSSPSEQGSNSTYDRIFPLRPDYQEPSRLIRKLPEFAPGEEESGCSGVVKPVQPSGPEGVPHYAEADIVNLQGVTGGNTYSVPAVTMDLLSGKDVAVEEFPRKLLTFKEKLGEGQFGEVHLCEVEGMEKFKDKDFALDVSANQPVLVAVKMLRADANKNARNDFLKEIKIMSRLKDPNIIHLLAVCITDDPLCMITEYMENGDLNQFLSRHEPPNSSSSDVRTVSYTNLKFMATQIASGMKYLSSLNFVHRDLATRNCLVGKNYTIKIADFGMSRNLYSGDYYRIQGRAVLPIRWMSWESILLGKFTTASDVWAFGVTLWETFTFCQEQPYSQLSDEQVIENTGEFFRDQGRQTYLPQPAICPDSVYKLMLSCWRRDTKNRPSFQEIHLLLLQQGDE
pKd: −log10 of the molar value.
recorded endpoint: pKd

1) Cc1cc(C)c(-n2ccn3nc(-c4cccnc4)cc23)cc1NC(=O)c1cc(C#N)cc(S(F)(F)(F)(F)F)c1
8.89

----------
- experimental system: Epithelial discoidin domain-containing receptor 1 (Homo sapiens)
- Sequence (Q08345 whole entry, the tested form may be a part): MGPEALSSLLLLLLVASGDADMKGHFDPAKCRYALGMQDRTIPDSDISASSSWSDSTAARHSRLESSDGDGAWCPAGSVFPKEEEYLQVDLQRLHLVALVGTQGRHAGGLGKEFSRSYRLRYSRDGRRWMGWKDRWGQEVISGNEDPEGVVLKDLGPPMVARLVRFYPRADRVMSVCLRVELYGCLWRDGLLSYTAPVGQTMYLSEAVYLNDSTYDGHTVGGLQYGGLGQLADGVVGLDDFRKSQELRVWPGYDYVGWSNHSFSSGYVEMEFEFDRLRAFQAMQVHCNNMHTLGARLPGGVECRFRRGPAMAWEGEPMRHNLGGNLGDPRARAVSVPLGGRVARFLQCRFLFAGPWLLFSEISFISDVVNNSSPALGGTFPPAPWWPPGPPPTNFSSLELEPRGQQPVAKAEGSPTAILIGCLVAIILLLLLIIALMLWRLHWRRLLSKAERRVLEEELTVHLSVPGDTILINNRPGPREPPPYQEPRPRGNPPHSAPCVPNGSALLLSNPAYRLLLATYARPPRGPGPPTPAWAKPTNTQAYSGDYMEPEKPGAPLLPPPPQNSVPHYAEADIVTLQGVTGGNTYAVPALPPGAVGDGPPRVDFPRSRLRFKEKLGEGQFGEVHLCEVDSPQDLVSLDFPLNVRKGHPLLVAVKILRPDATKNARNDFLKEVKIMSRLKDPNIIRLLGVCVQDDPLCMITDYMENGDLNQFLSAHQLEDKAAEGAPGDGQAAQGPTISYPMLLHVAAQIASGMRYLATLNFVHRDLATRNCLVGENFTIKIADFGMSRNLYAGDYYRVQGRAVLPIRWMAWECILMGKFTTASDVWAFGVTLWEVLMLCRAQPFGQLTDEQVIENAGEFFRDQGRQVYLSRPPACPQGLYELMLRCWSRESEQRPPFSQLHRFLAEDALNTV
recorded endpoint: Kd (pM)

1. Cc1cc(C)c(-n2ccn3nc(-c4cccnc4)cc23)cc1NC(=O)c1cc(C#N)cc(S(F)(F)(F)(F)F)c1
400
